# System: Zea mays (ZEAMX)
# Format: in vivo
# Run conditions: pre-emergence, 80 g/ha, crop plant compatibility, in comparison to untreated controls
Readout label: Pre-emergence action against ZEAMX in % (%)

For orientation, consider the following solved cases.
O=C(O)COc1nn(-c2ccncc2)c(-c2ccc(F)nc2)c1Br : 0
O=C(COc1nn(-c2ccccn2)c(-c2ccc(F)nc2)c1Br)OCC1CCCO1 (stereo not drawn) : 0
CCOC(=O)COc1nn(-c2ncccc2Cl)c(-c2ccc(F)nc2)c1Br : 10
O=C(COc1nn(-c2ccnc(Cl)c2)c(-c2ccc(F)nc2)c1Br)NS(=O)(=O)CC(F)(F)F : 0
CCOC(=O)CCNC(=O)COc1nn(-c2ncccc2F)c(-c2ccc(OC)nc2)c1Br : 20
O=C(O)COc1nn(-c2ncccc2Cl)c(-c2ccc(F)nc2)c1Br : 0

[I] COC(=O)[C@@H](C)Oc1nn(-c2cccnc2F)c(-c2ccc(F)nc2)c1Br
[II] CCOC(=O)COc1nn(-c2ccccn2)c(-c2ccc(Cl)nc2)c1Cl
[III] COC(=O)C1CCN(C(=O)COc2nn(-c3ccccn3)c(-c3ccc(F)nc3)c2Br)C1 (stereo not drawn)
IN: Rank the 3 compounds: largest Pre-emergence action against ZEAMX in % first, smallest last. Answer format: list of labels, ordered as asked.
OUT: I, III, II
(I: 20%, III: 10%, II: 0%)

[I] O=C(CSc1nn(-c2ccccn2)c(-c2cncc(F)c2)c1Br)NC1CC1
[II] CCOC(=O)CSc1nn(-c2ccccn2)c(-c2cncc(F)c2)c1Br
[III] CCOC(=O)C1CCN(C(=O)COc2nn(-c3ccccn3)c(-c3ccc(F)nc3)c2Br)CC1
IN: Task for the reader: rank each entry by its Pre-emergence action against ZEAMX in %, from the minimum upward. Answer format: list of labels, ordered as asked.
OUT: III, II, I
(III: 0%, II: 10%, I: 20%)

[A] C[C@@H](Oc1nn(-c2ncccc2F)c(-c2ccc(F)nc2)c1F)C(=O)O
[B] COCCOC(=O)COc1nn(-c2ccccn2)c(-c2ccc(F)nc2)c1Br
[C] COC(=O)C1CCCN1C(=O)COc1nn(-c2ccccn2)c(-c2ccc(F)nc2)c1Br (stereo not drawn)
IN: Rank the 3 compounds: largest Pre-emergence action against ZEAMX in % first, smallest last. Answer format: list of labels, ordered as asked.
OUT: A, C, B
(A: 20%, C: 10%, B: 0%)

[1] COC(=O)[C@@H](C)Oc1nn(-c2ccccn2)c(-c2ccnc(F)c2)c1Cl
[2] CCOC(=O)CSc1nn(-c2ccccn2)c(-c2cncc(F)c2)c1I
[3] CCOC(=O)[C@@H](C)Oc1nn(-c2ncccc2Cl)c(-c2ccc(F)nc2)c1Br
IN: Task for the reader: rank each entry by its Pre-emergence action against ZEAMX in %, from the minimum upward. Answer format: list of labels, ordered as asked.
OUT: 1, 2, 3
(1: 0%, 2: 10%, 3: 20%)

* * *

Items are presented alongside their recorded Post-emergence action against DIGSA in %.
# Tested on: Digitaria sanguinalis (DIGSA)
# Experiment summary: Post-emergence herbicidal action against DIGSA
# Format: in vivo
# Run conditions: 80 g/ha, visual rating about 3 weeks after treatment
API: value field is a number in %; no unit string.

O=C(COc1nn(-c2ncccc2F)c(-c2ccc(F)nc2)c1C1CC1)OCC1CC1 : 90
CCOC(=O)COc1nn(-c2ncccc2F)c(-c2ccc(F)nc2)c1C(F)(F)F : 90

Per the reported Digitaria sanguinalis (DIGSA) data, COC(=O)[C@@H](C)COC(=O)COc1nn(-c2ccccn2)c(-c2cncc(F)c2)c1Br has Post-emergence action against DIGSA in % of 80

Per the reported Digitaria sanguinalis (DIGSA) data, CCOC(=O)COc1nn(-c2ncccc2F)c(-c2cncc(F)c2)c1C(F)(F)F has Post-emergence action against DIGSA in % of 90

Per the reported Digitaria sanguinalis (DIGSA) data, O=C(COc1nn(-c2ncccc2F)c(-c2ccc(F)nc2)c1C1CC1)OCC1CCCC1 has Post-emergence action against DIGSA in % of 80

Per the reported Digitaria sanguinalis (DIGSA) data, COC(=O)[C@@H](C)Oc1nn(-c2ncccc2F)c(-c2cncc(F)c2)c1C1CC1 has Post-emergence action against DIGSA in % of 90

* * *

Items are presented alongside their recorded Post-emergence action against ECHCG in %.
# Tested on: Echinochloa crus-galli (ECHCG)
# Experiment summary: Post-emergence herbicidal action against ECHCG
# Format: in vivo
# Run conditions: dosage 80 g/ha
API: value field is a number in %; no unit string.

For orientation, consider the following solved cases.
CCOC(=O)COc1nn(-c2ncccc2C(F)(F)F)c(-c2ccc(F)nc2)c1Cl : 90
COCCOC(=O)COc1nn(-c2ncccc2C)c(-c2cncc(F)c2)c1Br : 90
CC(NC(=O)[C@@H](C)Oc1nn(-c2ccccn2)c(-c2ccc(F)nc2)c1Cl)C(=O)O (stereo partly drawn) : 80
O=C(COc1nn(-c2ncccc2F)c(-c2ccc(F)nc2)c1C1CC1)OCC1COC1 : 90
O=C(O)COc1nn(-c2ncccc2C(F)(F)F)c(-c2ccc(F)nc2)c1Cl : 80

Per the reported Echinochloa crus-galli (ECHCG) data, CCOC(=O)COc1nn(-c2nc(F)ccc2F)c(-c2ccc(F)nc2)c1Cl has Post-emergence action against ECHCG in % of 90

Per the reported Echinochloa crus-galli (ECHCG) data, COC(=O)C(C)COC(=O)[C@@H](C)Oc1nn(-c2ccccn2)c(-c2cncc(F)c2)c1Cl (stereo partly drawn) has Post-emergence action against ECHCG in % of 80

Per the reported Echinochloa crus-galli (ECHCG) data, COC(=O)C(C)OC(=O)C(C)Oc1nn(-c2ccccn2)c(-c2ccc(F)nc2)c1Cl (stereo not drawn) has Post-emergence action against ECHCG in % of 80

Per the reported Echinochloa crus-galli (ECHCG) data, CCOC(=O)COc1nn(-c2ncccc2C)c(-c2cncc(F)c2)c1Cl has Post-emergence action against ECHCG in % of 90

Per the reported Echinochloa crus-galli (ECHCG) data, COC(=O)[C@@H](C)Oc1nn(-c2ccccn2)c(-c2cncc(F)c2)c1Cl has Post-emergence action against ECHCG in % of 90

Per the reported Echinochloa crus-galli (ECHCG) data, COCCOC(=O)[C@@H](C)Oc1nn(-c2ncccc2F)c(-c2ccc(F)nc2)c1Br has Post-emergence action against ECHCG in % of 90

Per the reported Echinochloa crus-galli (ECHCG) data, O=C(O)COc1nn(-c2nc(F)ccc2F)c(-c2ccc(F)nc2)c1Cl has Post-emergence action against ECHCG in % of 80

Per the reported Echinochloa crus-galli (ECHCG) data, COC(=O)CNC(=O)COc1nn(-c2ccccn2)c(-c2ccc(F)nc2)c1F has Post-emergence action against ECHCG in % of 80

Per the reported Echinochloa crus-galli (ECHCG) data, COC(=O)C(C)COC(=O)[C@@H](C)Oc1nn(-c2ccccn2)c(-c2cncc(F)c2)c1Br (stereo partly drawn) has Post-emergence action against ECHCG in % of 80

* * *

# System: Oryza sativa (ORYSA)
# Assay type: in vivo
# Run conditions: crop plant compatibility, 80 g/ha, effect in comparison to untreated controls
Readout label: Post-emergence action against ORYSA in % (%)

For orientation, consider the following solved cases.
COC(=O)CNC(=O)COc1nn(-c2ccccn2)c(-c2ccc(F)nc2)c1C1CC1 [Example I-70] : 0
COC(=O)CCOC(=O)COc1nn(-c2ccccn2)c(-c2ccc(F)nc2)c1Br [Example I-247] : 10
CCOC(=O)[C@@H](C)Oc1nn(-c2nc(F)ccc2F)c(-c2ccc(F)nc2)c1Br [Example I-336] : 20
COC(=O)[C@@H](C)Oc1nn(-c2cccnc2F)c(-c2ccc(F)nc2)c1Br [II-36] : 0
COC(=O)[C@@H](C)Oc1nn(-c2ncccc2F)c(-c2cncc(F)c2)c1I [Example I-197] : 10
COC(=O)C1CCCN(C(=O)COc2nn(-c3ccccn3)c(-c3ccc(F)nc3)c2Br)C1 (stereo not drawn) [Example I-108] : 10
C[C@@H](Oc1nn(-c2ncccc2F)c(-c2ccc(F)nc2)c1Br)C(=O)O [Example I-50] : 10

[P] O=C(O)CSc1nn(-c2ccccn2)c(-c2cncc(F)c2)c1C1CC1 [Example I-153]
[Q] COC(=O)[C@@H](C)Oc1nn(-c2ccccn2)c(-c2cncc(F)c2)c1Br [Example I-83]
IN: Between the entries labelled P and Q , which has a larger Post-emergence action against ORYSA in % value on record? Write down the label of the entry you select.
OUT: Q

* * *

# Tested on: Triticum aestivum (TRZAS)
# Assay type: in vivo
# Run conditions: crop plant compatibility, 20 g/ha, effect vs untreated controls
Readout label: Post-emergence action against TRZAS in % (%)

COC(=O)CCOC(=O)COc1nn(-c2ccccn2)c(-c2ccc(F)nc2)c1C1CC1(F)F (stereo not drawn) [Example I-248] : 0
COC(=O)C1CCN(C(=O)COc2nn(-c3ccccn3)c(-c3ccc(F)nc3)c2Br)C1 (stereo not drawn) [Example I-109] : 0
O=C(COc1nn(-c2ncccc2F)c(-c2ccc(F)nc2)c1C1CC1)OCC1CCCC1 [Example I-251] : 10
CCOC(=O)COc1nn(-c2cccnc2C)c(-c2ccc(F)nc2)c1Br [II-46] : 0

[1] O=C(COc1nn(-c2ncccc2F)c(-c2ccc(F)nc2)c1C1CC1)OCC1CCOC1 (stereo not drawn) [Example I-289]
[2] O=C(O)COc1nn(-c2ccccn2)c(-c2ccc(F)nc2)c1I [Example I-103]
IN: Pick one: 1 or 2 . Which one has the lower reported Post-emergence action against TRZAS in %? Write down the label of the entry you select.
OUT: 2
